# TARGET OR SYSTEM: Human CD117 on Kasumi-1 cells or primary human CD34+ bone marrow cells (human, UniProt P10721 26-976)
# Sequence (P10721 26-976 limits assumed): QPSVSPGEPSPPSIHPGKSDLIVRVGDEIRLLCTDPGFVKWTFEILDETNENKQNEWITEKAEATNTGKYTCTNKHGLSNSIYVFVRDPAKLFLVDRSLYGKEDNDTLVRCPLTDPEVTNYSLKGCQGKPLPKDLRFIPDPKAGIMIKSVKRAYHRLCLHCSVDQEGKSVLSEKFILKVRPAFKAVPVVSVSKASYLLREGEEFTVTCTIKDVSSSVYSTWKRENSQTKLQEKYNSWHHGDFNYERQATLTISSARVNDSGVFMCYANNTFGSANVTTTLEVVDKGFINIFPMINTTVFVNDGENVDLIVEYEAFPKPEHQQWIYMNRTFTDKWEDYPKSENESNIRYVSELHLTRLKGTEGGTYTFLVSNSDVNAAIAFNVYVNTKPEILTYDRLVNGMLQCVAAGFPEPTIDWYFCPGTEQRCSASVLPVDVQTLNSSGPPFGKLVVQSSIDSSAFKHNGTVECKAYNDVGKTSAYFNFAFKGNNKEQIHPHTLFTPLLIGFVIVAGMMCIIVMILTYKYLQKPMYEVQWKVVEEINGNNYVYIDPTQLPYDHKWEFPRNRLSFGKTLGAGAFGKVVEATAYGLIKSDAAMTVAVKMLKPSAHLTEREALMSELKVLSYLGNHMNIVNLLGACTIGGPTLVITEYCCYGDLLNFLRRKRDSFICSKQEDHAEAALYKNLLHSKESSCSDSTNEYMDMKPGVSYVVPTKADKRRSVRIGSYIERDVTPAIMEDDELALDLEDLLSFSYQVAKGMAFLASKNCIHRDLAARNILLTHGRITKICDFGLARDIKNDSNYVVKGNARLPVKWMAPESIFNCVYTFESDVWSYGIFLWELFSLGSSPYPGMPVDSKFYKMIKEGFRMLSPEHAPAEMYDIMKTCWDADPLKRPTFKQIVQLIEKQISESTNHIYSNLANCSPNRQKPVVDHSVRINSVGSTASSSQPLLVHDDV
# EXPERIMENTAL PROTOCOL: cell-based or functional assay
READOUT: % Efficacy, in vitro hCD34 cell killing assay (%)
Give just the number in %; leave the unit off.

stdin: Answer with reported % Efficacy, in vitro hCD34 cell killing assay of CK6-SET0207 (Fc modification D265C H435A) (antibody, V domains shown, SET0207 payload ('Non-cleavable natural') conjugated to the antibody, Fc modification D265C H435A, DAR 2.0) VH: QVQLVQSGAAVKKPGESLKISCKGSGYRFTSYWIGWVRQMPGKGLEWMGIIYPGDSDTRYSPSFQGQVTISAGKSISTAYLQWSSLKASDTAMYYCARHGRGYNGYEGAFDIWGQGTMVTVSS VL: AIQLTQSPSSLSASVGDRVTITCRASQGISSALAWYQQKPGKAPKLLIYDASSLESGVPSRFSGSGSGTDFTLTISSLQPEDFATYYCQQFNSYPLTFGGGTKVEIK
stdout: 9.18
